Would you mind telling me the reported IC50 of each entry?
Target: BRDT BD2 (Homo sapiens, UniProt Q58F21)
Assay: TR-FRET binding assay, isolated recombinant BD
Output spec: scalar in nM, unitless text.

IC50 measured on COc1cc(OC)c2c(=O)cc(-c3cc(C)c(OC[C@H](O)CN4CCCCC4)c(C)c3)oc2c1 [Compound 44] = 2320

// sample COc1cc(OC)c2c(=O)cc(-c3cc(C)c(OC[C@@H](O)CN4CCCCC4)c(C)c3)oc2c1 [Compound 42] , its IC50 was 2410

---

Target: BRD3 BD2 (Homo sapiens)
Sequence (Q15059 306-415 limits assumed): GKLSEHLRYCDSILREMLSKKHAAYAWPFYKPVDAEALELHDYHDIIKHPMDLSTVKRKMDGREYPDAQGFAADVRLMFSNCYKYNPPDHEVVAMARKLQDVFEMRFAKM
Test: TR-FRET binding assay, isolated recombinant BD
quantity measured: pIC50
pIC50 (log units): -log10 of the concentration in mol/L.

The measured pIC50 associated with COc1cc(OC)c2c(=O)cc(-c3cc(C)c(OC[C@@H](O)CN4CCN(C)CC4)c(C)c3)oc2c1 reads 5.71

# compound COc1cc(OC)c2c(=O)cc(-c3cc(C)c(OC[C@@H](O)CN4CCCCC4)c(C)c3)oc2c1 ; its pIC50 = 5.76

COc1cc(OC)c2c(=O)cc(-c3cc(C)c(OC[C@H](O)CN4CCCCC4)c(C)c3)oc2c1 yielded pIC50 of 5.68
